- Test System: T1, human GIP receptor (human) (UniProt P48546)
- T1 sequence (looked up): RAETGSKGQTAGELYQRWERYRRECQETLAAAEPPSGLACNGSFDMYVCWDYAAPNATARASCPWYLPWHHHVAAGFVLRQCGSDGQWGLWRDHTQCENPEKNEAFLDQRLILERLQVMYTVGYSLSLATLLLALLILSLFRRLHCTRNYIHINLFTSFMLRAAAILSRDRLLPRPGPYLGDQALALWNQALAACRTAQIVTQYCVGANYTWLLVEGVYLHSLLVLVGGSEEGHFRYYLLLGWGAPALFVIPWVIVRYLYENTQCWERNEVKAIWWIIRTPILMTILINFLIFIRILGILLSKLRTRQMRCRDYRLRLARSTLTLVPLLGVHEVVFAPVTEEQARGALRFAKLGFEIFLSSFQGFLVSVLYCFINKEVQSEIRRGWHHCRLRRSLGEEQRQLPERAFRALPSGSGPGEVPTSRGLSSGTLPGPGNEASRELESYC
- Protocol Description: cell-based or functional assay

[
  {
    "Binder": "YXQGTFTSDFSXXLDKKAQXAFIEYLLEAGPSSGAPPPSGT (non-natural residues, lysine acylation, C-terminal amide; synthetic construct; SITE 2: note = 2-Aminoisobutyric Acid; SITE 12: note = L-ornithine; SITE 13: note = alpha-methyl-leucine; SITE 17: note = Lysine is chemically modified through conjugation of the epsilon-amino group of the Lysine side chain with (2-[2-(2-Amino-ethoxy)-ethoxy]-acetyl)-(gamma-Glu)) [Example 210]",
    "Unit String": "nM",
    "Relative cAMP EC50": 0.153
  },
  {
    "Binder": "YXQGTXTSDXXIXLDXKAAXEFIEXLIEGGPSSGEPPPSGGGE (synthetic construct; SITE 2: note = 2-Aminoisobutyric Acid; SITE 6: note = alpha-methyl-2-fluoro-L-phenylalanine; SITE 10: note = 3-(4-Pyridyl)-L-alanine; SITE 11: note = alpha-methyl-L-serine; SITE 13: note = alpha-methyl-leucine; SITE 16: note = L-ornithine; SITE 17: note = Lysine is chemically mo) [Example 746]",
    "Unit String": "nM",
    "Relative cAMP EC50": 0.0119
  },
  {
    "Binder": "YXQGTXTSDXXIXLDXKAQXXFIEXLTEGGPSSGEPPPSGTE (synthetic construct; SITE 2: note = 2-Aminoisobutyric Acid; SITE 6: note = alpha-methyl-2-fluoro-L-phenylalanine; SITE 10: note = 3-(4-Pyridyl)-L-alanine; SITE 11: note = alpha-methyl-L-serine; SITE 13: note = alpha-methyl-leucine; SITE 16: note = L-ornithine; SITE 17: note = Lysine is chemically mo) [Example 542]",
    "Unit String": "nM",
    "Relative cAMP EC50": 0.0336
  }
]
